Answer each item with its documented Post-emergence herbicidal damage score, AMARE (Amaranthus retroflexus).
# System: a variety of test species
# test summary: Post-emergence herbicidal activity (glasshouse, sprayed 8 days after sowing, evaluated after 13 days); note: key: 5=total damage to plant; 0=no damage to plant
# Format: in vivo
# experimental setup: Amaranthus retroflexus, 1000 g/ha, scale 0-5
Just the number, please, no unit after it.

Input line: Requested field: Post-emergence herbicidal damage score, AMARE (Amaranthus retroflexus). Item: COC1=C(C)C(=O)N(c2nn(C)c3c2CCC3(C)C)C1O (stereo not shown) [Compound I4]
Output line: 5

Input line: Requested field: Post-emergence herbicidal damage score, AMARE (Amaranthus retroflexus). Item: CCOC(C)(CC)c1cc(N2C(=O)C(C)=C(Cl)C2O)nn1C (mixture of isomers) [Compound B14]
Output line: 4

Input line: Requested field: Post-emergence herbicidal damage score, AMARE (Amaranthus retroflexus). Item: COC1=C(C)C(=O)N(c2cc(C(F)(F)F)n(C)n2)C1O (stereo not shown) [Compound I3]
Output line: 5

Input line: Requested field: Post-emergence herbicidal damage score, AMARE (Amaranthus retroflexus). Item: CC1=C(Br)C(O)N(c2cc(C(C)(C)C)[nH]n2)C1=O (stereo not shown) [Compound H2]
Output line: 5

Where do the numbers come from? From patent US20160168126A1.
